Below: a set of entries, each annotated with reported melting point.

Use the examples below as a reference point.
MOLECULE	melting point
Cc1cnc(N2CCN(CC[C@H]3CC[C@H](NC(=O)CC4CCOCC4)CC3)CC2)c2ccoc12	206 °C
Cc1cc(N2CCC(=O)CC2)c2cc(C)c(-c3ccc(Cl)cc3Cl)n2n1	170 to 171 °C
COc1ccc2[nH]c(C)c(/C=C/C(=O)c3ccncc3)c2c1	256 to 259 °C
COc1c(-c2noc3ccsc23)ccc2c1O2	88 to 90 °C

Now look at this entry.
# input molecule: CCOC(=O)c1cc2c(=O)c3cc(C(C)CO)ccc3oc2nc1N (stereo not given) ; wanted: its melting point
255 to 256 °C

====

Below: a set of entries, each annotated with reported melting point.

# input molecule: O=C(O)c1cc(Cl)ccc1Nc1ccc(OCc2ccccc2)cc1 ; wanted: its melting point
189 to 191 °C

Repeat for the following molecule: Cc1cccc(C(=O)C(=C2SCS2)c2ccncc2)c1
179 °C

Repeat for the following molecule: O=C(O)C(CCc1ccccc1)(CCc1ccccc1)C(=O)O
168 to 172 °C

Repeat for the following molecule: O=C1CCC2(CC1)CC(=O)c1ccccc1C2
158 to 160 °C

Repeat for the following molecule: O=C(O)c1cc(NCc2ccc(F)cc2)ccc1O
> 210 °C

====

Below: a set of entries, each annotated with reported melting point.

COMPOUND	melting point
CS(=O)(=O)c1ccc(-n2nc(C(F)(F)F)cc2-c2ccc([N+](=O)[O-])cc2)cc1	203 to 205 °C
O=C1NCCc2oc3ccccc3c21	158 to 161 °C
CS(=O)(=O)c1ccc(-n2nc(C(F)(F)F)cc2-c2ccc(-n3ccnc3)cc2)cc1	183 to 184 °C
Cc1cc(OCCCC(=O)N(CCCCO)C2CCCCC2)cc(C=O)c1[N+](=O)[O-]	72 to 73 °C
NC(Cc1cc(Cl)c(Sc2ccc(O)c(Cc3ccc(=O)[nH]c3)c2)c(Cl)c1)C(=O)O (centres undefined)	261 to 264 °C

# input compound: N#CCCOc1ccc2c(c1)CCO2 ; wanted: its melting point
< 50 °C

Repeat for the following compound: CCN1CCCC1CNC(=O)c1sc(CO)c(C)c1OC (centres undefined)
118 to 119 °C

====

Below: a set of entries, each annotated with reported melting point.

Use the examples below as a reference point.
COMPOUND	melting point
CCc1cccc(CC(=O)O)c1OCCCc1cn(-c2ccc(C(F)(F)F)nn2)nc1C(C)C	126 to 127 °C
CCCCCCCCOc1ccc(-c2nc(-c3ccccc3)c(-c3ccccc3)[nH]2)cc1	178 °C

# input compound: Cc1cc(=O)c(-c2ccc(F)cc2)c(C)[nH]1 ; wanted: its melting point
> 250 °C

Repeat for the following compound: COc1cc2[nH]ccc(=O)c2cc1OC
120 to 122 °C

Repeat for the following compound: Cc1nn(-c2ccccn2)c2nc3ccccc3c(C(N)=O)c12
> 300 °C

Repeat for the following compound: Cc1ccc(C(O)=C(C#N)C(=O)C(C)(C)C)c([N+](=O)[O-])c1
99 to 102 °C

Repeat for the following compound: CN1C(=N)c2c(Cl)cccc2S1(=O)=O
92.5 to 95 °C

Repeat for the following compound: CC(C)(C)C(NC(=O)c1ccc(Cl)cc1)NC(=NC#N)NCc1cccc(Cl)c1 (stereo not given)
178 to 180 °C

Repeat for the following compound: O=C(Nc1ccc2c(c1)NCCC2)c1cc2cc(C(F)(F)F)ccc2n1Cc1cccc(F)c1
203 to 204 °C

Repeat for the following compound: COc1ccc(C2Cc3c(cccc3C(F)(F)F)NC(=O)C2CO)cc1 (stereo not given)
189 to 190 °C

====

REPORTED_METRIC: melting point

COMPOUND	melting point
CCOC(=O)CCc1ccc(OCc2ccc(Cn3nc(C(C)(C)C)cc3C(C)(C)C)cc2)cc1F	73 to 74 °C
O=C(CNc1ccc2[nH]c(=O)sc2c1)N1CCC(Cc2ccc(F)cc2)CC1	149 to 155 °C
Cc1ccc(-c2noc3c(Cl)c(OCC(=O)O)ccc23)o1	217 to 219 °C
O=C(c1ccc(F)cc1)C1CCN(CCN(C(=O)c2ccc([N+](=O)[O-])cc2)c2ccccc2C(F)(F)F)CC1	157 to 158 °C
COC(=O)[C@@H]1C[C@H](C(=O)OC(C)(C)C)N(C(=O)CNC(=O)Nc2ccc(Cl)cc2)[C@@H]1c1ccccc1 (racemic)	125 °C

# input compound: CNC(=O)Oc1ccc(NS(=O)(=O)c2ccc(C)cc2)c(C)c1 ; wanted: its melting point
181 to 184 °C

Repeat for the following compound: O=C(O)c1ccc([N+](=O)[O-])c(S(=O)(=O)CCO)c1
176 to 177 °C

Repeat for the following compound: Fc1ccc(CCN2CCC(N3CCc4ccc(Br)cc43)CC2)cc1
99 to 101 °C

Repeat for the following compound: CCCCC#Cc1nc(N)n2nc(-c3ccco3)nc2n1
188 to 191 °C

Repeat for the following compound: Nc1c(-c2cc(Cl)ccc2O)c2cc(I)ccc2[nH]c1=O
160 to 162 °C

Repeat for the following compound: CCCCOc1ccc(S(C)(=O)=O)cc1-c1nc2c(CC)n(C3CN(C(C)C)C3)nc2c(=O)[nH]1
209 to 213 °C

Repeat for the following compound: COC(=O)c1ncccc1SCc1ccc(OC)cc1
99 to 100 °C

Repeat for the following compound: Cc1cc(N(C)CC(=O)N2CCN(Cc3ccccc3)CC2)ccc1Oc1ccc(NC(=O)c2ccc(C(F)(F)F)cc2)cn1
112 to 113 °C

Repeat for the following compound: Oc1cc2c(cc1C13CC4CC(CC(C4)C1)C3)CCCC2
169 to 170 °C

Repeat for the following compound: COC(=O)c1ccc(Cn2nc(CO)c3ccc(C(=O)NCC4CCCC4)cc32)c(OC)c1
187 to 188 °C

====

REPORTED_METRIC: melting point

Use the examples below as a reference point.
COMPOUND	melting point
COc1ccc(C=CC(=O)C2CC2)cc1OC	89 to 91 °C
O=C(O)c1cc2cccnc2[nH]1	> 260 °C
CCOC(=O)Nc1cc(-c2cccc3ccccc23)c2nc(C(=O)O)ccc2c1	205 to 208 °C
COc1ccccc1N1CCN(c2nc3c(cc2F)c(=O)c(C(=O)O)cn3-c2ccc(F)cc2)CC1	272 to 273 °C
COc1ccc(Br)c2c1C1C(=O)NC(=O)C1CC2 (stereo unspecified)	191 to 193 °C

# input compound: O=C(CC(=O)c1ccc(C(=O)CC(=O)c2ccccc2)cc1)c1ccccc1 ; wanted: its melting point
175 to 177 °C

Repeat for the following compound: Cc1cc(C(=O)NCO)ncc1C(c1c(F)ccc(F)c1F)S(=O)(=O)c1ccc(F)c(F)c1 (stereo unspecified)
119 to 120 °C

Repeat for the following compound: Cc1c(Cl)sn(-c2ccccc2)c1=O
60 to 68 °C

====

Below: a set of entries, each annotated with reported melting point.

Use the examples below as a reference point.
SMILES_RECORD	VAL
O=C(O)COc1ccc(SCc2cc(-c3ccccc3Cl)on2)c2c1CCC2	161 to 162 °C
c1cnc2ccc(Cn3nnc4ccc(-c5ccc6c(c5)OCO6)nc43)cc2c1	179 to 181 °C
O=C(O)C(CBr)(c1ccccc1)c1ccccc1	201 to 202 °C

# input molecule: CCNC(=O)c1c([Si](C)(C)C)sc2ccccc12 ; wanted: its melting point
121 to 124 °C

Repeat for the following molecule: O=S(=O)(NCc1ccnc2ccccc12)c1ccc(-c2cc(Cl)ccc2Cl)cc1
124 °C

====

REPORTED_METRIC: melting point

Use the examples below as a reference point.
SMILES_RECORD	REPORTED_METRIC	VAL
OC[C@H]1OC[C@@H](n2c(NC3CC3)nc3cc(Cl)c(Cl)cc32)C[C@@H]1O	melting point	98 to 99 °C
CC12CCCc3cc(NS(=O)(=O)c4ccc(C(=O)O)cc4)cc(c31)CCC2	melting point	215 to 217 °C
CN(O)C(=O)NCCc1cccc(Oc2ccccc2)c1	melting point	84.5 to 86 °C

# input compound: CC(C)(C)c1ccc(C(=O)Nc2cn3cc(Cl)ccc3n2)cc1 ; wanted: its melting point
250 to 251 °C

Repeat for the following compound: CC(C)(c1cccc(C(F)(F)F)c1)N1C[C@H]([C@H](Cc2ccccc2)NC(=O)c2cc(C(=O)O)c3n2CCN(S(C)(=O)=O)C3)OC1=O
147 °C

Repeat for the following compound: CC(C)(C)OC(=O)NCc1ccc2cc(O)ccc2c1
173 to 174 °C

Repeat for the following compound: CN(C)c1c(-c2ccc(-c3ccccc3)cc2)nc2ccc(F)cc2c1C(=O)O
235 to 239 °C

Repeat for the following compound: CC(C)(C)OC(=O)NCc1ccc(-c2ccc(O)cc2)cc1
147 to 149 °C

Repeat for the following compound: CCN(CC)CCNC(=O)c1c(I)ccc2cc3ccccc3nc12
81 to 83 °C

Repeat for the following compound: CCCCCCCCCCNC(=O)c1cc(NCC(=O)O)cc(C(=O)NCCCCCCCCCC)c1
172 to 173 °C
